Test system: recombinant homotrimeric HA, A/Japan/305/57 H2N2 (Influenza A virus A/Japan/305/57 (H2N2))
Measurement notes: trimeric HA microarray, transfection set 5
Cond: remark: other sources report otherwise
Property label: Trimeric HA Binding RLU (RLU)
Hi! Could you send only the number? It should be in RLU, unit omitted.

Here is how some binders turned out for Trimeric HA Binding RLU.
[
  {
    "Binder": "TCN-558 (5248_H10b) (antibody, V domains shown) VH: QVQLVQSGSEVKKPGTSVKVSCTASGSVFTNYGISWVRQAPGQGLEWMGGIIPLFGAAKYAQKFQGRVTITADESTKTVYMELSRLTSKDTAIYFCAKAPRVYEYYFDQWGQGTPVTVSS VL: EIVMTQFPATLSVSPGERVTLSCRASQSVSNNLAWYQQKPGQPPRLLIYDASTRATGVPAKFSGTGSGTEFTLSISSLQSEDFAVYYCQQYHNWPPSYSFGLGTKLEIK",
    "Trimeric HA Binding RLU [RLU]": 34400
  },
  {
    "Binder": "TCN-552 (5249_I23) (antibody, V domains shown) VH: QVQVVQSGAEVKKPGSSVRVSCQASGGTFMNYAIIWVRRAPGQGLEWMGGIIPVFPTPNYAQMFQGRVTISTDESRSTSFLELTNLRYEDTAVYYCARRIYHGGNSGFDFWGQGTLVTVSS VL: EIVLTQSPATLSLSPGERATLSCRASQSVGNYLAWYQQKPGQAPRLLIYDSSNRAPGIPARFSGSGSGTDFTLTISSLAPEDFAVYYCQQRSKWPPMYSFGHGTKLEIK",
    "Trimeric HA Binding RLU [RLU]": 52000
  }
]

Prompt line: Determine its reported Trimeric HA Binding RLU: TCN-553 (5261_C18) (antibody, V domains shown) VH: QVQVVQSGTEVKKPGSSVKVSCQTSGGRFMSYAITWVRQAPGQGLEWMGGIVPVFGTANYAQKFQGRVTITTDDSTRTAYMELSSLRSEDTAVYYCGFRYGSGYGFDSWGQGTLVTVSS VL: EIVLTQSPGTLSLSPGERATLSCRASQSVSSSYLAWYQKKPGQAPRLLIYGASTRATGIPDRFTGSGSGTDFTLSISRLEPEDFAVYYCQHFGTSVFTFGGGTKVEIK
Response line: 39800
